- method: IV maximum tolerated dose (MTD)
- run parameters: Nude Balb/c, mouse, in vivo, QD x 5 days, mice

molecule: CCOc1ccccc1-n1c(C(C)N2CCCN(C)CC2)nc2cc(N)ccc2c1=O (stereo not shown)
measurement unit: mg/kg
MTD at 5 days: 25
